target-desc: Kras and SOS1 (biotin-tagged human Kras loaded with GDP, His-tagged human SOS1) (Homo sapiens, UniProt P01116, G12D)
Construct: made in house; host or cells: E. coli (stated for Kras only)
Sequence (P01116 1-188 isoform P01116-2 G12D): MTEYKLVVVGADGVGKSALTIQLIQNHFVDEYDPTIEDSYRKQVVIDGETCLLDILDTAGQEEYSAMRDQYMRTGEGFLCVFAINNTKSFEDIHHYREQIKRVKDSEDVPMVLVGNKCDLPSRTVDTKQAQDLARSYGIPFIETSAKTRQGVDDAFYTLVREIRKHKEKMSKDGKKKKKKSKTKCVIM
test: Protein-protein interaction inhibition between Kras and SOS1 (KrasGl2D-SOS PPI) using AlphaScreen
Format: binding
experimental-parameters: AlphaScreen; biotin-tagged human Kras loaded with GDP, His-tagged human SOS1; read-out: KRAS G12D-SOS PPI IC50
Positions of bridges follow the written chain, without caps; N, C: chain ends. Non-standard residues stand in square brackets, D forms with d. Residues, ends and D or L forms follow the SMILES beside them. *: point of attachment. hPhe(3-Cl-4-CF3) = N[C@@H](CCc1ccc(C(F)(F)F)c(Cl)c1)C(=O)O; NMeDab(N,N-(CH2CF2CH2)) = CN[C@@H](CCN1CC(F)(F)C1)C(=O)O; NMeAbu(4,4,4-F3) = CN[C@@H](CC(F)(F)F)C(=O)O; NMePhe(4-Me) = CN[C@@H](Cc1ccc(C)cc1)C(=O)O; NMeGly(cPent) = CN[C@H](C(=O)O)C1CCCC1; Phe(3-I) = N[C@@H](Cc1cccc(I)c1)C(=O)O; NMeCha = CN[C@@H](CC1CCCCC1)C(=O)O; NMeT = CN[C@H](C(=O)O)[C@@H](C)O; hPhe = N[C@@H](CCc1ccccc1)C(=O)O; NMeD = CN[C@@H](CC(=O)O)C(=O)O; NMeL = CN[C@@H](CC(C)C)C(=O)O; NMeV = CN[C@H](C(=O)O)C(C)C; NMeA = CN[C@@H](C)C(=O)O; NMeAib = CNC(C)(C)C(=O)O; Piperidide = C1CCN(*)CC1; Ac5c = NC1(C(=O)O)CCCC1; Aze = O=C(O)[C@@H]1CCN1; Sar = CNCC(=O)O; Propyl = CCC*
# IC50 per entry

[
  {
    "molecule": "CC[C@H](C)[C@@H]1NC(=O)[C@H](CC(F)(F)F)N(C)C(=O)C[C@@H](C(=O)N2CCCCC2)N(C)C(=O)[C@H](C(C)C)N(C)C(=O)C2(CCCC2)NC(=O)[C@@H]2CCCN2C(=O)[C@H](CCc2ccc(C(F)(F)F)c(Cl)c2)NC(=O)CN(C)C(=O)[C@H](CC2CCCCC2)N(C)C(=O)[C@@H]2CCN2C(=O)[C@H](C)N(C)C1=O [Compound 1704] ([NMeAbu(4,4,4-F3)]I[NMeA][Aze][NMeCha][Sar][hPhe(3-Cl-4-CF3)]P[Ac5c][NMeV][NMeD]-Piperidide; lactam N-11)",
    "IC50 / nM": 6
  },
  {
    "molecule": "CCCOC[C@@H]1NC(=O)[C@H](CCN2CC(F)(F)C2)N(C)C(=O)[C@H](CCc2ccc(C(F)(F)F)c(Cl)c2)NC(=O)CN(C)C(=O)[C@H](CC2CCCCC2)N(C)C(=O)[C@@H]2CCN2C(=O)[C@H](C)N(C)C(=O)[C@H]([C@@H](C)CC)NC(=O)[C@H](CC(C)C)N(C)C(=O)C[C@@H](C(=O)N(C)C)N(C)C(=O)[C@H](C2CCCC2)N(C)C1=O [Compound 817] ([NMeL]I[NMeA][Aze][NMeCha][Sar][hPhe(3-Cl-4-CF3)][NMeDab(N,N-(CH2CF2CH2))]S(Propyl)[NMeGly(cPent)][NMeD]-NMe2; lactam N-11)",
    "IC50 / nM": 15
  },
  {
    "molecule": "CC[C@H](C)[C@@H]1NC(=O)[C@H](CC(C)C)N(C)C(=O)C[C@@H](C(=O)N2CCCCC2)N(C)C(=O)[C@H](CC(C)C)NC(=O)C(C)(C)N(C)C(=O)[C@H](CCc2ccccc2)NC(=O)[C@H](Cc2cccc(I)c2)NC(=O)CN(C)C(=O)[C@H](Cc2ccc(C)cc2)N(C)C(=O)[C@@H]2CCN2C(=O)CN(C)C1=O [Compound 442] ([NMeL]I[Sar][Aze][NMePhe(4-Me)][Sar][Phe(3-I)][hPhe][NMeAib]L[NMeD]-Piperidide; lactam N-11)",
    "IC50 / nM": 70
  },
  {
    "molecule": "CC[C@H](C)[C@@H]1NC(=O)[C@H](CC(C)C)N(C)C(=O)C[C@@H](C(=O)N2CCCCC2)N(C)C(=O)[C@H]([C@@H](C)O)N(C)C(=O)C2(CCCC2)NC(=O)[C@@H]2CCCN2C(=O)[C@H](CCc2ccc(C(F)(F)F)c(Cl)c2)NC(=O)CN(C)C(=O)[C@H](CC2CCCCC2)N(C)C(=O)CN(C)C(=O)CN(C)C1=O [Compound 1041] ([NMeL]I[Sar][Sar][NMeCha][Sar][hPhe(3-Cl-4-CF3)]P[Ac5c][NMeT][NMeD]-Piperidide; lactam N-11)",
    "IC50 / nM": 1.6
  }
]

FYI, the data here is from patent US12371454B2.
